Provenance of the data: ChEMBL document CHEMBL1201862

- Test system: SK-MEL-5
- measurement_protocol: NCI tumour cell line growth inhibition, 48 h
Active and inactive are the calls of the source. Rule as the data show it: active = GI50 up to about 1.1 µM and inactive = higher.
Outcomes you can answer with include only these: yes (1) (active), no (0) (inactive)

>>> category("COc1ccc(OC)c([N+](=O)[O-])c1-c1nc2sc(Cl)cn2c1/C=N/N=C(N)N")
"no (0)"
>>> category("CCN(CC)CCNC(=O)c1ccccc1NC(=O)C(=O)Nc1ccccc1C(=O)NCCN(CC)CC")
"no (0)"
>>> category("COc1cc2c(cc1O)C=NCC2")
"no (0)"

IN: Tell me the assay call for `COC(=O)c1ccccc1/C=C1/Cc2ccccc2C1=O` please.
OUT: no (0)

IN: Repeat with `COc1cc2c[n+](C)c3c4cc(OC)c(OCc5ccccc5)cc4c(OCc4ccccc4)cc3c2cc1OC`
OUT: no (0)

IN: Could you do the same for `CCN(c1ccccc1)[C@H]1C(=O)N(c2ccc([N+](=O)[O-])cc2)[C@H]1c1ccc(OC)cc1` , please?
OUT: no (0)

IN: Ok, now `N#Cc1c(-c2ccc([N+](=O)[O-])cc2)cc(-c2ccc(Nc3ccnc4cc(Cl)ccc34)cc2)nc1N`
OUT: no (0)

IN: Please do the same for Cc1cccc2c1Oc1cc(Cl)ccc1C2NC(=O)CCN1CCN(CCO)CC1 (configuration not stated) as well.
OUT: no (0)

IN: Repeat for the following compound: `CCCCS/C(=C(/C#N)C(N)=O)c1cc2c([nH]1)CCCC2`
OUT: no (0)

IN: What do you get for `C=CCn1c2c(c3ccccc3c1=O)C(=O)c1ccccc1-2` ?
OUT: no (0)

IN: Could you do the same for CC(=O)OC(C)(C)CCC(=O)[C@](C)(O)[C@H]1[C@H](O)C[C@@]2(C)[C@@H]3CCc4c(cc(OC5OC(CO)C(O)C(O)C5O)c(O)c4C)C3(C)C(=O)C[C@]12C (some centres not stated) , please?
OUT: no (0)

----------
- System: SK-MEL-28
- measurement_protocol: NCI tumour cell line growth inhibition, 48 h
Calls of active or inactive are those of the source. No stated cut-off is given here; in the data, active = GI50 up to about 1.1 µM and inactive = higher.
Provide the reported GI50 of each item.

Worked examples, 2 compounds total:
>>> obs_value("O=C1C(Br)=CC2([N+](=O)[O-])CCNC3=C(C4=NCCc5c[nH]c(c54)C3=O)C2=C1Br (stereo unspecified)")
"3.26 µM (inactive)"
>>> obs_value("Cc1ccc(C)c(NC(=O)NCc2ccc(Cl)cc2)c1")
"97.5 µM (inactive)"

Give GI50 for each of the items listed below.
1. S=c1sc2c(s1)SCc1cccc(n1)CSc1sc(=S)sc1SCc1cccc(n1)CS2
2. COC(=O)c1ccccc1/C=C1/Cc2ccccc2C1=O
3. CCOC(=O)CNC(=O)C(CSC(=O)N(C)O)NC(=O)CCC(N)C(=O)O (stereo unspecified)
4. CC(C)C(=O)/C=C/c1c(Cl)cccc1Cl

OUT:
["> 100 µM (inactive)", "65.5 µM (inactive)", "927 µM (inactive)", "5.81 µM (inactive)"]

----------
- Tested on: MOLT-4
- measurement_protocol: NCI tumour cell line growth inhibition, 48 h
Activity calls are given as the source filed them. No stated cut-off is given here; in the data, active = GI50 up to about 1.1 µM and inactive = higher.
Hello, when you answer, please use one of the following outcomes: 1 (yes) for active, 0 (no) for inactive

>>> category("CS(=O)(=O)Nc1ccc(Nc2c3ccccc3nc3ccccc23)cc1")
"1 (yes)"
>>> category("CCOP1(=O)C=CC(Cl)=C(C)C1 (stereo unspecified)")
"0 (no)"
>>> category("NC(=O)C(Nc1ccc(Cl)cc1)c1cc2cc(Br)ccc2nc1Cl (stereo unspecified)")
"0 (no)"
>>> category("COc1cc(Br)c(CC2=NCCc3cc(OC)c(OC)cc32)cc1OC")
"0 (no)"
>>> category("NC(=S)N/N=C1\\C(=O)C=C(Nc2ccc(Cl)cc2Cl)c2ccccc21")
"0 (no)"

Please turn your attention to the following entry.
IN: So what was the verdict on C[C@]12CCCC(=O)C1C[C@H](C(=O)O)CC2 (stereo partly specified) in this test?
OUT: 0 (no)

----------
- System: BT-549
- measurement_protocol: NCI tumour cell line growth inhibition, 48 h
The source made the active and inactive calls. No stated cut-off is given here; in the data, active = GI50 up to about 1.1 µM and inactive = higher.
quantity: GI50

List the reported GI50 of each molecule below.
1. Oc1nc(S)nc2c1CN(CCCN1CCOCC1)CN2
2. CC1=C(CO)C(=O)O[C@@H]([C@@H](CO)[C@H]2CCC3C4C[C@@H](O)[C@@]5(O)CC=CC(=O)[C@]5(C)C4CC[C@@]32C)C1 (some centres undefined)
3. c1cnc2c(c1)ccc1cccnc12
4. Oc1ccc(Cc2cc(Cc3ccc(O)cc3)cc(Cc3ccc(O)cc3)c2)cc1

OUT:
["75.2 µM (inactive)", "26.4 µM (inactive)", "9.79 µM (inactive)", "> 50 µM (inactive)"]

----------
- System: COLO 205
- measurement_protocol: NCI tumour cell line growth inhibition, 48 h
Active and inactive are the calls of the source. Rule as the data show it: active = GI50 up to about 1.1 µM and inactive = higher.
Task for the reader: assign each of the following compounds its reported GI50.

>>> obs_value("O=C1C(Br)=CC2([N+](=O)[O-])CCNC3=C(C4=NCCc5c[nH]c(c54)C3=O)C2=C1Br (stereo not given)")
"0.0178 µM (active)"
>>> obs_value("CCOC(=O)C(NC(=O)C(CCCCNP(=O)(OCC)OCC)NC(=O)C(C)NC(C)=O)C(C)C (stereo not given)")
"> 100 µM (inactive)"
>>> obs_value("CCNC1=C(NC(=O)CCl)C(=O)c2ccccc2C1=O")
"> 10 µM (inactive)"

The following compounds each have a reported value; give each one's GI50.
1. CCOC(=O)Cc1c(C)c2cc(C(=O)c3ccccc3)c(O)cc2oc1=O
2. COc1cc2c[n+](C)c3c4cc(OC)c(OCc5ccccc5)cc4c(OCc4ccccc4)cc3c2cc1OC

OUT:
18.5 µM (inactive)
0.429 µM (active)

----------
- Test system: Malme-3M
- measurement_protocol: NCI tumour cell line growth inhibition, 48 h
Activity calls are given as the source filed them. No stated cut-off is given here; in the data, active = GI50 up to about 1.1 µM and inactive = higher.
Choose one outcome from this list and give only that: yes (1) (active), no (0) (inactive)

The examples below pair each entry with its known result.
>>> category("CC(=O)NS(=O)(=O)c1ccc(NCc2cccc3c(=O)c4ccc(Cl)cc4oc23)cc1")
"no (0)"
>>> category("O=c1cc(-c2ccccc2)c2cc3c(=O)ccoc3cc2o1")
"no (0)"
>>> category("Nc1nc(SCc2ccccc2Cl)cc(C(=O)O)n1")
"no (0)"
>>> category("CC1=Nc2c(ccc3c2C(=O)c2ccccc2C3=O)NC(c2cccc3c2CCC3)C1 (configuration not stated)")
"no (0)"
>>> category("CCCCNC(=O)OCCN=c1c2ccccc2ccc2ccccc12")
"no (0)"

IN: Tell me the recorded outcome of this test for `COc1cc2ccc3c4cc(OC)c(OC)cc4c[n+](C)c3c2cc1O` .
OUT: no (0)

IN: Repeat for the following compound: `COc1cc2c(cc1OCCN1C(=O)c3cccc4cccc(c34)C1=O)N=C[C@@H]1CCCN1C2=O`
OUT: no (0)

IN: One more compound: C/C1=C/C(C)CC(C)OC(=O)C(C)NC(=O)C(Cc2ccc(O)c(I)c2)N(C)C(=O)C(C)NC(=O)C(C)C1 (configuration not stated)
OUT: yes (1)

IN: Now try CC(C(O)c1ccccc1)N(C)/N=N/c1nc2c([nH]1)c(=O)n(C)c(=O)n2C (configuration not stated) .
OUT: no (0)

IN: Moving on to `Nc1nonc1-c1noc(-c2nonc2N)[n+]1[O-]`
OUT: no (0)

IN: Could you do the same for `O=C(NN=C1NCCN1)c1ccco1` , please?
OUT: no (0)

IN: Cool, now `COc1cc(Br)c(CC2=NCCc3cc(OC)c(OC)cc32)cc1OC`
OUT: no (0)

IN: What do you get for O=C1NC(=O)C2C3C=CC(C12)C1C2C(=O)NC(=O)C2C31 (configuration not stated) ?
OUT: no (0)

IN: Can you handle CC(C)CC(NC(=O)c1cccc(O)c1O)C(=O)NCc1cc(CNC(=O)C(CC(C)C)NC(=O)c2cccc(O)c2O)cc(CNC(=O)C(CC(C)C)NC(=O)c2cccc(O)c2O)c1 (configuration not stated) next?
OUT: no (0)

IN: Please answer likewise for `Oc1ccc[nH]c1=[Se]`
OUT: no (0)

IN: Another: `CCCN(CCC)c1cc2c(cc1F)c(=O)c(C(=O)O)cn2-c1ccc(N2CCN(C)CC2)cn1`
OUT: no (0)

IN: Do the same for `COc1ccc(-n2c(C)nc3ccc(NC(=S)Nc4ccccc4)cc3c2=O)cc1` please
OUT: no (0)

----------
- System: SR
- measurement_protocol: NCI tumour cell line growth inhibition, 48 h
Activity calls are given as the source filed them. Cut-off read from the data, not from the text of the source: active = GI50 up to about 1.1 µM and inactive = higher.
Tick one outcome: active, inactive

IN: Outcome? `COc1ccc(-n2c(=O)c3nc[nH]c3n(-c3ccc(OC)cc3)c2=S)cc1`
OUT: inactive

IN: Field entry: CCCCCCCC(CC(=O)NC(CO)C(=O)NC(CO)CC(C)C)OC(=O)CC(CCCCCCC)OC(=O)CC(CCCCCCC)OC1OC(C)C(O)C(OC2OC(C)C(O)C(O)C2O)C1O (stereo unspecified)
OUT: inactive

IN: What do you have for COC(=O)/C(=N\NC(N)=O)C(C(=O)C(=O)Nc1ccccc1C(=O)OC)c1nc2ccc(C(=O)c3ccccc3)cc2nc1O (stereo unspecified) ?
OUT: inactive

IN: Another compound to look at: `COc1ccc(C(c2c[nH]c3ccc(Br)cc23)c2c[nH]c3ccc(Br)cc23)cc1`
OUT: active

IN: Now consider C=CCOc1cc2c(cc1C(C)c1ccc(OC)cc1)OCO2 (stereo unspecified) .
OUT: active

IN: Try this compound too: `COc1ccc2c(c1OC)C[C@@H]1c3c(cc4c(c3-2)OCO4)CCN1C`
OUT: inactive

IN: Same lookup for `Oc1ccc[nH]c1=[Se]` , please.
OUT: inactive

IN: Queued: `O=C(O)CN1CCN(CC(=O)N2CCN(C(=O)OCc3ccccc3)CC2)CCN(CC(=O)O)CCN(CC(=O)N2CCN(C(=O)OCc3ccccc3)CC2)CC1`
OUT: inactive

IN: Input `CCNC1=C(NC(=O)CCl)C(=O)c2ccccc2C1=O`
OUT: inactive

IN: Please answer likewise for `Cc1ccc(NC(=O)CC/C(CC(=O)c2ccc(Cl)cc2)=N\NC(=O)C(=O)NN)cc1C`
OUT: inactive

IN: Record: `Nc1nonc1-c1noc(-c2nonc2N)[n+]1[O-]`
OUT: inactive
